# reported Kd; entries follow
Target: T1, human DLL3 extracellular domain (ECD) with C-terminal 8xHis tag and Avi tag (human, UniProt Q9NYJ7 27-492)
T1 construct: extracellular domain; Expressed in Expi293, purified by IMAC and SEC; also called huDLL3; not shown: Avi tag
T1 sequence: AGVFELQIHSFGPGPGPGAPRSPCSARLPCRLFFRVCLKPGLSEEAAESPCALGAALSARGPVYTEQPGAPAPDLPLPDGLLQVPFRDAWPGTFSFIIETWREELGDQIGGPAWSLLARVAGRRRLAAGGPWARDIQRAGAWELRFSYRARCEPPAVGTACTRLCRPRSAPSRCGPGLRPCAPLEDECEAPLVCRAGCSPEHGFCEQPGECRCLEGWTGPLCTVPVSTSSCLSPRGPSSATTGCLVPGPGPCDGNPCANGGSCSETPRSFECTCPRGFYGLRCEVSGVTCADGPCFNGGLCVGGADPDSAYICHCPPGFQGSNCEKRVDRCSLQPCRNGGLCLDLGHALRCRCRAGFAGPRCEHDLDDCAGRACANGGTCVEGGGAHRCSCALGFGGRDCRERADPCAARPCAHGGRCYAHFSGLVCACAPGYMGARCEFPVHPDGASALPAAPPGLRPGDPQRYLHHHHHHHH
Assay: SPR (Biacore), 37 C; scFv-Fc captured on chip, human DLL3 ECD in solution; 1:1 Langmuir fit
Express the result in nM but write the number alone.

Example cases with answers are listed next.
{"BINDER": "3F2 scFv-Fc fusion (Fc fusion, not shown: a dimerising Fc or GST, scFv-Fc expressed in Expi293) scFv: QVQLQESGPGLVKPSGTLSLTCAVSGGSISSNNWWSWVRQPPGKGLEWIGDIHHSGSTNYKPSLKSRVTISVDKSKNQFSLNLISVTAADTAVYYCAREAGGYFDYWGQGILVTVSSGGGGSGGGGSGGGGSGGGGSDIQMTQSPSTLSASVGDRVTITCRASQSISSWLAWYQQKPGKAPKLLISKASSLESGVPSRFSGSGSGPEFTLTISSLQPADFATYYCQQYNSYSTFGQGTKLEIK", "QUANTITY_KIND": "Kd", "OBSERVED_RESULT": 8.18}
{"BINDER": "7F9 scFv-Fc fusion (Fc fusion, not shown: a dimerising Fc or GST, scFv-Fc expressed in Expi293) scFv: EVQLVESGGGLVQPGGSLRLSCAASGFTFSSHDMHWVRQATGKGLEWVSAIGIAGDTYYSGSVKGRFTISRENAKNSLYLQMNSLRAGDTAVYYCARANWGEGAFDIWGQGTMVTVSSGGGGSGGGGSGGGGSGGGGSDIQMTQSPSSLSASVGDRVTITCRASQGISDYLAWYQQKPGKIPKLLIYAASTLQSGVPSRFSGSGSGTDFTLTISSLQPEDVATYYCQKYNSVPLTFGGGTKVEIK", "QUANTITY_KIND": "Kd", "OBSERVED_RESULT": 27.3}

# context switch: different binder, same Kd
Which measured Kd value corresponds to 2G1 scFv-Fc fusion (Fc fusion, not shown: a dimerising Fc or GST, scFv-Fc expressed in Expi293) scFv: QLQLQESGPGLVKPSETLSLTCTVSGGSISSSSYYWGWIRQPPGKGLEWIGSIYYSGNIYHNPSLKSRVSISVDTSKNQFSLRLSSVTAADTAVYYCAREIIVGATHFDYWGQGTLVTVSSGGGGSGGGGSGGGGSGGGGSAIQMTQSPSSLSASVGDRVTITCRASQGIRNDLGWYQQKPGKAPELLIYAASSLQSGVPSRFSGSGSGTDFTLTISSLQPEDFATYYCLQDYNYPLTFGPGTKVDIK ? 17.2
